Attribution: ChEMBL document CHEMBL1123225

Measured parameter: pKi
To interpret pKi, take it as minus log10 of a concentration measured in moles per litre.

Short answer please: pKi, Mu-type opioid receptor (Cavia porcellus, UniProt P97266), entry CN1CC[C@]23c4c5ccc(O)c4O[C@H]2[C@@H](NC(=O)CCC(=O)N[C@H]2CC[C@@]4(O)[C@H]6Cc7ccc(O)c8c7[C@@]4(CCN6C)[C@H]2O8)CC[C@@]3(O)[C@H]1C5
7.30

Short answer please: pKi, Mu-type opioid receptor (Cavia porcellus, UniProt P97266), entry CC(=O)N[C@@H]1CC[C@@]2(O)[C@H]3Cc4ccc(O)c5c4[C@@]2(CCN3C)[C@H]1O5
7.20

Short answer please: pKi, Mu-type opioid receptor (Cavia porcellus, UniProt P97266), entry CN1CC[C@]23c4c5ccc(O)c4O[C@H]2[C@@H](NC(=O)CNC(=O)CNC(=O)CCC(=O)NCC(=O)NCC(=O)N[C@H]2CC[C@@]4(O)[C@H]6Cc7ccc(O)c8c7[C@@]4(CCN6C)[C@H]2O8)CC[C@@]3(O)[C@H]1C5
7.85

Short answer please: pKi, Mu-type opioid receptor (Cavia porcellus, UniProt P97266), entry CN1CC[C@]23c4c5ccc(O)c4O[C@H]2[C@@H](NC(=O)CNC(=O)CNC(=O)CNC(=O)CCC(=O)NCC(=O)NCC(=O)NCC(=O)N[C@H]2CC[C@@]4(O)[C@H]6Cc7ccc(O)c8c7[C@@]4(CCN6C)[C@H]2O8)CC[C@@]3(O)[C@H]1C5
7.47

Short answer please: pKi, Mu-type opioid receptor (Cavia porcellus, UniProt P97266), entry CN1CC[C@]23c4c5ccc(O)c4O[C@@H]2[C@H](NC(=O)CCC(=O)N[C@@H]2CC[C@]4(O)[C@H]6Cc7ccc(O)c8c7[C@@]4(CCN6C)[C@@H]2O8)CC[C@]3(O)[C@H]1C5
7.64
